- target-entity: T1, mouse secretagogin M229E (mouse, UniProt Q91WD9 1-276, M229E)
- T1 sequence: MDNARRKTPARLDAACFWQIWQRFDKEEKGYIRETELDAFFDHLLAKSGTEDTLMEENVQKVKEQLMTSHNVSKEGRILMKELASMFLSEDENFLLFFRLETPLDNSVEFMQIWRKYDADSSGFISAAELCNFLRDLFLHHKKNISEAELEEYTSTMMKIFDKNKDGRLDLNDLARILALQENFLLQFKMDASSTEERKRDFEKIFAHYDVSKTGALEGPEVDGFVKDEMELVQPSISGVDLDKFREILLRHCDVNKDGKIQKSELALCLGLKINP
- protocol-text: ITC
measure-name: Kd (µM)
Number only, in µM; omit the unit.

Would you kindly share the measured Kd for TPLPEESMKQGLQNLREEIKQLGREVRAQLKAIEPQKE (domain or fragment) [helix-b of the Habc domain of mouse syntaxin-4] ?
5.21

The origin of these recorded values is paper PMC11032447.
